Known inhibition at 10 µM of a selection of molecules
tested on: SW480 (colon cancer); assay: Antiproliferative activity, CCK-8 cell viability; assay type: cell-based; conditions: Homo sapiens, compound concentration of 10 μM, 72 h, read-out: Inhibition of Cancerous Cells, SW480

Query :: Complete the entry with inhibition at 10 µM for `CC1=C(CC(=O)O)c2cc(F)ccc2/C1=C\c1cccc(COc2ccc(C(C)(C)C)cc2)c1`
Result :: ≥ 50%

Query :: Complete the entry with inhibition at 10 µM for `CC1=C(CC(=O)O)c2cc(F)ccc2/C1=C\c1ccc(Cc2ccc(F)cc2)cc1`
Result :: ≥ 50%

Query :: Complete the entry with inhibition at 10 µM for `CC1=C(CC(=O)O)c2cc(F)ccc2/C1=C\c1cccc(Oc2ccc(C(F)(F)F)cc2)c1`
Result :: < 30%

Query :: Complete the entry with inhibition at 10 µM for `CC1=C(CC(=O)O)c2c(F)cc(F)cc2/C1=C\c1cccc(Oc2ccccc2)c1`
Result :: ≥ 50%

* * *

Known inhibition at 3.3 µM of a selection of compounds
tested on: HeLa (cervical cancer); test: Antiproliferative activity, CCK-8 cell viability; format: cell-based; conditions: Homo sapiens, compound concentration of 3.3 μM, 72 h, read-out: Inhibition of Cancerous Cells, HELA

Example entries begin here.
CC1=C(CC(=O)O)c2cc(F)ccc2/C1=C\c1ccc(CN(C)c2ccccc2)cc1    < 30%
CC1=C(CC(=O)O)c2cc(F)cc(F)c2/C1=C\c1ccc(Oc2ccc(F)cc2)cc1    < 30%
CC1=C(CC(=O)O)c2cc(F)ccc2/C1=C\c1ccc(Oc2ccc(F)cc2)cc1C(F)(F)F    < 30%

Query :: Provide inhibition at 3.3 µM, recorded with HeLa (cervical cancer), of `CC1=C(CC(=O)O)c2c(F)cc(F)cc2/C1=C\c1cccc(Oc2ccccc2)c1`
Result :: < 30%

Query :: Provide inhibition at 3.3 µM, recorded with HeLa (cervical cancer), of `CC1=C(CC(=O)O)c2cc(F)cc(F)c2/C1=C/c1cccc(Oc2ccccc2)c1`
Result :: 30 to 50%

Query :: Provide inhibition at 3.3 µM, recorded with HeLa (cervical cancer), of `CC1=C(CC(=O)O)c2cc(F)ccc2/C1=C\c1ccc(Oc2ccc(F)cc2)cc1C`
Result :: < 30%

Query :: Provide inhibition at 3.3 µM, recorded with HeLa (cervical cancer), of `CC1=C(CC(=O)N(C)O)c2cc(F)ccc2/C1=C\c1cccc(Oc2ccccc2)c1`
Result :: < 30%

Query :: Provide inhibition at 3.3 µM, recorded with HeLa (cervical cancer), of `CC1=C(CC(=O)O)c2cc(F)ccc2/C1=C\c1cccc(CN(C)c2ccccc2)c1`
Result :: 30 to 50%

* * *

System: SW480 (colon cancer)
Assay: Antiproliferative activity, CCK-8 cell viability
Format: cell-based
Details: Homo sapiens, compound concentration of 3.3 μM, 72 h, read-out: Inhibition of Cancerous Cells, SW480
Description: The antiproliferative activity of a compound was determined in the following cell lines: MDA-MB-231 (breast cancer), HepG2 (liver cancer), SW480 (colon cancer), B16F10 (malignant melanoma), A431 (epidermoid carcinoma), A549 (lung adenocarcinoma), and HeLa (cervical cancer). […] Briefly, cells were seeded in a 96-well plate at a density of 2,000-5,000 cells/well. […] After incubation at 37° C. for 4 h, the absorbance value of each well was determined using a multi-well plate reader at 450 nm. […]
REPORTED METRIC: inhibition at 3.3 µM

Example entries begin here.
CC1=C(CC(=O)N(C)O)c2cc(F)ccc2/C1=C\c1cccc(Oc2ccccc2)c1 [Compound B5]    30 to 50%
O=C(O)CC1=C(Cc2ccccc2)/C(=C/c2ccc(Oc3ccc(F)cc3)cc2)c2ccc(F)cc21 [Compound D9]    30 to 50%
CC1=C(CC(=O)NO)c2cc(F)ccc2/C1=C\c1ccc(C(C)(C)C)cc1 [Compound D42]    ≥ 50%
COc1cccc2c1C(CC(=O)O)=C(C)/C2=C/c1ccc(Oc2ccccc2)cc1 [Compound D28]    ≥ 50%
CC1=C(CC(=O)O)c2cc(F)ccc2/C1=C\c1ccc(Cc2ccc(F)cc2)cc1 [Compound A3]    ≥ 50%

Query :: Complete the entry with inhibition at 3.3 µM for CC1=C(CC(=O)O)c2cc(F)ccc2/C1=C\c1cccc(Oc2ccc(C(F)(F)F)cc2)c1 [Compound D26]
Result :: < 30%

Query :: Complete the entry with inhibition at 3.3 µM for CC1=C(CC(=O)O)c2cc(F)ccc2/C1=C/c1ccc(Oc2ccc(F)c(F)c2)cc1 [Compound E1]
Result :: ≥ 50%

Query :: Complete the entry with inhibition at 3.3 µM for CC1=C(CC(=O)O)c2cc(F)ccc2/C1=C\c1ccc(CCc2ccccc2)cc1 [Compound A8]
Result :: 30 to 50%

Query :: Complete the entry with inhibition at 3.3 µM for CC1=C(CC(=O)O)c2cc(F)cc(F)c2/C1=C/c1cccc(Oc2ccccc2)c1 [Compound E7]
Result :: < 30%

Query :: Complete the entry with inhibition at 3.3 µM for CC1=C(CC(=O)O)c2cc(F)cc(F)c2/C1=C/c1ccc(Oc2ccc(F)cc2)cc1 [Compound E4]
Result :: < 30%

Query :: Complete the entry with inhibition at 3.3 µM for CC1=C(CC(=O)O)c2cc(F)ccc2/C1=C\c1ccc(F)c(Oc2ccccc2)c1 [Compound D23]
Result :: < 30%

* * *

tested on: HeLa (cervical cancer); experiment: Antiproliferative activity, CCK-8 cell viability; type: cell-based; details: Homo sapiens, compound concentration of 3.3 μM, 72 h, read-out: Inhibition of Cancerous Cells, HELA
REPORTED METRIC: inhibition at 3.3 µM

Example entries begin here.
CC1=C(CC(=O)O)c2cc(F)ccc2/C1=C\c1cccc(CCc2ccccc2)c1 [Compound A17]    30 to 50%
CC1=C(CC(=O)O)c2cc(F)ccc2/C1=C\c1ccc(CN(Cc2ccccc2)c2ccccc2)cc1 [Compound A10]    ≥ 50%

Attention now shifts to the item below.
Query :: Complete the entry with inhibition at 3.3 µM for CC1=C(CC(=O)O)c2cc(F)ccc2/C1=C\c1cccc(COc2ccc(F)c(F)c2)c1 [Compound A20]
Result :: 30 to 50%
